# Tested on: KRAS patient-derived spheroids with HUVEC/MSC, viability;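 note: spheroids exposed to agents for 7 days; 100% = DMSO vehicle control viability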
# experimental_details: Anticancer human tumor 323965-272-R-J2-PDC patient-derived pancreatic carcinoma cell line growth inhibition [KRAS2]
# condition_summary: second compound 1 µM; first compound 0.0316 µM; active compounds read low
assay_readout: viability, T/C (%)
Note: unit % is implicit; provide only the numeric part.

// worked examples, viability, T/C included
[[record]]
compound = "CC(C)NCC(C(=O)N1CCN(c2ncnc3c2C(C)CC3O)CC1)c1ccc(Cl)cc1 (stereo not given) + COc1cc2nc(C)nc(NC(C)c3cc(N)cc(C(F)(F)F)c3)c2cc1OC1CCOC1"
test_system = "KRAS patient-derived spheroids with HUVEC/MSC, viability"
assay_readout = "viability, T/C"
reported_result = 72.3

[[record]]
compound = "COc1cc2nccc(Oc3ccc(NC(=O)C4(C(=O)Nc5ccc(F)cc5)CC4)cc3)c2cc1OC + C=CC(=O)N1CCN(c2nc(=O)n(-c3c(C)ccnc3C(C)C)c3nc(-c4c(O)cccc4F)c(F)cc23)C(C)C1"
test_system = "KRAS patient-derived spheroids with HUVEC/MSC, viability"
assay_readout = "viability, T/C"
reported_result = 54.5

[[record]]
compound = "COC(=O)c1ccc2c(C(=Nc3ccc(N(C)C(=O)CN4CCN(C)CC4)cc3)c3ccccc3)c(O)[nH]c2c1 + CC1OCC2(CCN(c3cnc(Sc4ccnc(N)c4Cl)c(N)n3)CC2)C1N"
test_system = "KRAS patient-derived spheroids with HUVEC/MSC, viability"
assay_readout = "viability, T/C"
reported_result = 45.3

[[record]]
compound = "CN(C)C/C=C/C(=O)Nc1cc2c(Nc3ccc(F)c(Cl)c3)ncnc2cc1O[C@H]1CCOC1 + CC1OCC2(CCN(c3cnc(Sc4ccnc(N)c4Cl)c(N)n3)CC2)C1N"
test_system = "KRAS patient-derived spheroids with HUVEC/MSC, viability"
assay_readout = "viability, T/C"
reported_result = 64.6


Query compound follows.
Give the observed viability, T/C of CC1COCCN1c1cc(-c2ccnn2C)c2ccnc(-c3ccn[nH]3)c2n1 (stereo not given) + CNCc1ccccc1-c1csc(C(C)Nc2nc(C)nc3cc(OC)c(OC)cc23)c1 for KRAS patient-derived spheroids with HUVEC/MSC, viability.
34.3
